Assay: PK of orally administered TFV
Type: in vivo
Conditions: female, BALB/c Rag1−/− or Rag2−/−γc−/− (humanized, Hu-HSC RAG-hu), mouse, vaginal tissue, po, 61.5 mg/kg
measure-name: Tmax (h)
// units = h; emit number, no label

Which Tmax is listed for `C[C@H](Cn1cnc2c(N)ncnc21)OCP(=O)(O)O` ?
2

* * *

Assay: in vivo
Set-up: species or system non-humanized mice
Conditions: female, mouse, po, 61.5 mg/kg, Cmax (median)
measure-name: Cmax (ng/mL)
I only need the number, in ng/mL, no unit after it.

Suppose we examine the compound `C[C@H](Cn1cnc2c(N)ncnc21)OCP(=O)(O)O` ; what Cmax value has been reported?
1550

* * *

Test: PK of orally administered TFV
Type: in vivo
Settings: female, BALB/c Rag1−/− or Rag2−/−γc−/− (humanized, Hu-HSC RAG-hu), mouse, in vivo, po, 61.5 mg/kg, Cmax (median)
measure-name: Cmax (ng/mL)
Enter your answer as a number in ng/mL; do not include the unit.

Requested field: Cmax. Item: `C[C@H](Cn1cnc2c(N)ncnc21)OCP(=O)(O)O`
1990

* * *

Test: PK of orally administered TFV
Format: in vivo
Details: female, BALB/c Rag1−/− or Rag2−/−γc−/− (humanized, Hu-HSC RAG-hu), mouse, in vivo, po, 61.5 mg/kg
measure-name: AUC(0-t) (ng·h/mL)
Numeric answer only, unit ng·h/mL assumed.

For the compound `C[C@H](Cn1cnc2c(N)ncnc21)OCP(=O)(O)O` , what AUC(0-t) is on record?
11300

* * *

Test: PK of orally administered TFV
Format: in vivo
Details: female, BALB/c Rag1−/− or Rag2−/−γc−/− (humanized, Hu-HSC RAG-hu), mouse, intestinal tissue, po, 61.5 mg/kg
measure-name: half-life (h)
State just the number; it will be interpreted in h.

half-life for `C[C@H](Cn1cnc2c(N)ncnc21)OCP(=O)(O)O` ?
13.9

* * *

Test: PK of orally administered TFV
Format: in vivo
Details: female, BALB/c Rag1−/− or Rag2−/−γc−/− (humanized, Hu-HSC RAG-hu), mouse, rectal tissue, po, 61.5 mg/kg
measure-name: Tmax (h)
Number only, in h; omit the unit.

Entry `C[C@H](Cn1cnc2c(N)ncnc21)OCP(=O)(O)O` : reported Tmax = ?
2

* * *

Test: PK of orally administered TFV
Type: in vivo
Conditions: female, BALB/c Rag1−/− or Rag2−/−γc−/− (humanized, Hu-HSC RAG-hu), mouse, vaginal tissue, po, 61.5 mg/kg
measure-name: half-life

Requested field: half-life. Item: `C[C@H](Cn1cnc2c(N)ncnc21)OCP(=O)(O)O`
9 h

* * *

Experiment: PK of orally administered TFV
Format: in vivo
Details: female, BALB/c Rag1−/− or Rag2−/−γc−/− (humanized, Hu-HSC RAG-hu), mouse, plasma, po, 61.5 mg/kg
measure-name: Tmax (h)
Write the value in h as a bare number.

Which Tmax reading was recorded for the molecule `C[C@H](Cn1cnc2c(N)ncnc21)OCP(=O)(O)O` ?
2

* * *

Assay: PK of orally administered TFV
Format: in vivo
Conditions: female, BALB/c Rag1−/− or Rag2−/−γc−/− (humanized, Hu-HSC RAG-hu), mouse, plasma, po, 61.5 mg/kg
measure-name: half-life (h)
Write the value in h as a bare number.

GET /values?readout=half-life&item= `C[C@H](Cn1cnc2c(N)ncnc21)OCP(=O)(O)O`
17
